Experiment: log P determination by HPLC on reverse-phase column (EEC Directive 79/831 Annex V.A8)
Type: physicochemical
Conditions: HPLC on reverse-phase column
logP less than 4 is Y; logP greater than or equal to 4 is N.

Problem: For the molecule Cc1cc(Cl)cc(C(=O)NC(C)C)c1NC(=O)c1cc(Cn2cc(I)c(C(F)(F)C(F)(F)F)n2)nn1-c1ncccc1Cl , is logP under 4?
N

Problem: For the molecule Cc1cc(Cl)cc(C(=O)NC(C)C)c1NC(=O)c1cc(Cn2cc(Cl)c(C(F)(F)F)n2)nn1-c1ncccc1Cl , is logP under 4?
Y

Problem: For the molecule CSCC(C)(C)NC(=O)c1cc(Br)cc(C)c1NC(=O)c1cc(Cn2nc(C(F)(F)F)nc2C(F)(F)F)nn1-c1ncccc1Cl , is logP under 4?
N

Problem: For the molecule CNC(=O)c1cc(Br)cc(C)c1NC(=O)c1cc(Cn2nc(C(F)(F)F)nc2C(F)(F)F)nn1-c1ncccc1Cl , is logP under 4?
Y

Problem: For the molecule Cc1cc(Br)cc(C(=O)NCC#N)c1NC(=O)c1cc(Cn2cc(Cl)c(C(F)(F)C(F)(F)F)n2)nn1-c1ncccc1Cl , is logP under 4?
Y

Problem: For the molecule Cc1cc(Br)cc(C(=O)N[C@@H](C)C[S+](C)[O-])c1NC(=O)c1cc(Cn2nc(C(F)(F)F)nc2C(F)(F)F)nn1-c1ncccc1Cl (stereo partly shown) , is logP under 4?
Y

Problem: For the molecule Cc1cc(Cl)cc(C(N)=O)c1NC(=O)c1cc(Cn2nnc(-c3ccc(C(F)(F)F)cc3)n2)nn1-c1ncccc1Cl , is logP under 4?
Y

Problem: For the molecule Cc1cc(Cl)cc(C(=O)NC(C)C)c1NC(=O)c1cc(Cn2nnc(-c3ccc(C(F)(F)F)cc3)n2)nn1-c1ncccc1Cl , is logP under 4?
N

Problem: For the molecule Cc1cc(Cl)cc(C(=O)NC(C)C)c1NC(=O)c1cc(Cn2nc(C(F)(F)C(F)(F)F)nc2C(F)(F)C(F)(F)F)nn1-c1ncccc1Cl , is logP under 4?
N

Problem: For the molecule Cc1cc(Br)cc(C(=O)NC2CC2)c1NC(=O)c1cc(Cn2cc(Br)c(C(F)(F)F)n2)nn1-c1ncccc1Cl , is logP under 4?
Y

Problem: For the molecule Cc1cc(Cl)cc(C(=O)NC(C)C)c1NC(=O)c1cc(Cn2cc(I)c(I)n2)nn1-c1ncccc1Cl , is logP under 4?
Y

Problem: For the molecule CNC(=O)c1cc(Cl)cc(C)c1NC(=O)c1cc(Cn2cc(Cl)c(C(F)(F)F)n2)nn1-c1ncccc1Cl , is logP under 4?
Y

Problem: For the molecule Cc1cc(Br)cc(C(N)=O)c1NC(=O)c1cc(Cn2cc(Br)c(C(F)(F)F)n2)nn1-c1ncccc1Cl , is logP under 4?
Y

Problem: For the molecule Cc1cc(Cl)cc(C(=O)NC(C)C)c1NC(=O)c1cc(Cn2ccc(Cl)n2)nn1-c1ncccc1Cl , is logP under 4?
Y

Problem: For the molecule Cc1cc(Cl)cc(C(=O)NC(C)C)c1NC(=O)c1cc(Cn2nnc(-c3ccc(Cl)nc3)n2)nn1-c1ncccc1Cl , is logP under 4?
Y

Problem: For the molecule Cc1cc(Cl)cc(C(=O)NC(C)C)c1NC(=O)c1cc(Cn2cc(C(F)(F)C(F)(F)F)c(C(F)(F)C(F)(F)F)n2)nn1-c1ncccc1Cl , is logP under 4?
N

Problem: For the molecule CNC(=O)c1cc(Br)cc(C)c1NC(=O)c1cc(Cn2nc(C(F)(F)F)cc2C(F)(F)F)nn1-c1ncccc1Cl , is logP under 4?
Y

Problem: For the molecule CNC(=O)c1cc(Cl)cc(C)c1NC(=O)c1cc(Cn2nc(C(F)(F)F)nc2C(F)(F)F)nn1-c1ncccc1Cl , is logP under 4?
Y

Problem: For the molecule CNC(=O)c1cc(Cl)cc(C)c1NC(=O)c1cc(Cn2cc(C(F)(F)F)cn2)nn1-c1ncccc1Cl , is logP under 4?
Y

Problem: For the molecule Cc1cc(Cl)cc(C(=O)NC(C)C)c1NC(=O)c1cc(Cn2cc(F)cn2)nn1-c1ncccc1Cl , is logP under 4?
Y

Problem: For the molecule CNC(=O)c1cc(Cl)cc(C)c1NC(=O)c1cc(Cn2nnc(-c3cc(C(F)(F)F)cc(C(F)(F)F)c3)n2)nn1-c1ncccc1Cl , is logP under 4?
N

Problem: For the molecule CNC(=O)c1cc(Cl)cc(C)c1NC(=O)c1cc(Cn2ccc(Cl)n2)nn1-c1ncccc1Cl , is logP under 4?
Y

Problem: For the molecule Cc1cc(Cl)cc(C(N)=O)c1NC(=O)c1cc(Cn2nnn(-c3cc(C(F)(F)F)cc(C(F)(F)F)c3)c2=O)nn1-c1ncccc1Cl , is logP under 4?
Y

Problem: For the molecule Cc1cc(Br)cc(C(=O)NC(C)C)c1NC(=O)c1cc(Cn2cc(Cl)c(C(F)(F)C(F)(F)F)n2)nn1-c1ncccc1Cl , is logP under 4?
N
